Can you tell me TGI for the items I'm about to list?
Test system: HCT-15 colon
Test: NCI tumour cell line growth inhibition, 48 h

### Prompt Which TGI reading was recorded for the molecule Cc1cc(O)c(C2=NN(c3ccc(S(N)(=O)=O)cc3)C(/C=C/c3ccccc3)C2)cc1Cl (stereo not given) ?
### Response > 100 µM

### Prompt Can you share its TGI? I mean this molecule: COC1CC(N)C(O)C(C)O1 (stereo not given)
### Response > 100 µM

### Prompt Can you share its TGI? I mean this molecule: N#CC1=C(O)NC(O)=C(C#N)C1c1ccc(C2C(C#N)=C(O)NC(O)=C2C#N)cc1
### Response > 100 µM

### Prompt # input molecule: C=C(Cl)C(Cl)(CCl)CCC(Br)C(C)(C)Br (stereo not given) ; wanted: its TGI
### Response > 10 µM

### Prompt Sample CC(=O)/C=C/c1ccc(OCc2ccc(Cl)cc2)cc1 — what was its TGI?
### Response > 1000 µM

Where these numbers come from: PubChem BioAssay (NCI)
